# target-entity: T1, human B7-H4 (purified monomeric recombinant human protein, ACRO biosystems) (human, UniProt Q7Z7D3 29-258, limits assumed, chemically biotinylated (EZ-Link NHS-LC-Biotin) in the yeast display and competition experiments; non-biotinylated in SPR)
# T1 construct: Bought recombinant monomeric protein; also called B7x; B7S1
# T1 sequence: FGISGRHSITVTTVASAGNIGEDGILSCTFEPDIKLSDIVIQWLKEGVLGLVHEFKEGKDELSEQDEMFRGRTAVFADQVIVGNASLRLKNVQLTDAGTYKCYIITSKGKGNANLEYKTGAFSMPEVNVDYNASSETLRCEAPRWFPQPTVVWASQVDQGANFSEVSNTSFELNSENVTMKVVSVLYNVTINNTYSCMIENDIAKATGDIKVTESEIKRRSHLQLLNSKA
# experiment-summary: SPR (Carterra LSA); scFv-Fc captured on anti-human IgG Fc, antigen injected
observation-type: KD fold-improvement

# binder, observation-type, result
data = [
    ("B07 scFv-Fc (scFv, V domains shown, Tested as scFv-Fc fusion (human IgG1 Fc, vector pDNL9) in crude yeast supernatant; Combo 2 library) VH: EVQLVESGGGVVQPGRSLRLSCAASGFTFGDRAMNWVRQAPGKGLEWVSAISGSGATTYYADSVKGRFTISRDNSKNTLYLQMNSLRAEDTAVYYCARKRWYGMDVWGQGTTVTVSS VL: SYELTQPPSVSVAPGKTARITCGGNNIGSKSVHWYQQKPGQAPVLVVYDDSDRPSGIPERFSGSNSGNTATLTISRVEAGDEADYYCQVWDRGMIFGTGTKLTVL", "KD fold-improvement", "138 fold over parental"),
    ("A04 scFv-Fc (scFv, V domains shown, Tested as scFv-Fc fusion (human IgG1 Fc, vector pDNL9) in crude yeast supernatant; Combo 1 library) VH: EVQLVESGGGVVQPGRSLRLSCAASGFTFSSRSMNWVRQAPGKGLEWVSAISGSGDTTYYADSVKGRFTISRDNSKNTLYLQMNSLRAEDTAVYYCARKRWYGMDVWGQGTTVTVSS VL: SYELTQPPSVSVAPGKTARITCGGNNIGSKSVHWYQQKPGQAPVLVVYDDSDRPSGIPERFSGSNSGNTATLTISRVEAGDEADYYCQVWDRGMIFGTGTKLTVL", "KD fold-improvement", "108 fold over parental"),
    ("A01 scFv-Fc (scFv, V domains shown, Tested as scFv-Fc fusion (human IgG1 Fc, vector pDNL9) in crude yeast supernatant; Combo 1 library) VH: EVQLVESGGGVVQPGRSLRLSCAASGFTFSNKAMNWVRQAPGKGLEWVSAISGSGATTYYADSVKGRFTISRDNSKNTLYLQMNSLRAEDTAVYYCARKRWYGMDVWGQGTTVTVSS VL: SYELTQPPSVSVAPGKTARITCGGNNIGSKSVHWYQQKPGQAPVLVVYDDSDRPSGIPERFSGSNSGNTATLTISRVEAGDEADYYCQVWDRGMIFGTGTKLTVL", "KD fold-improvement", "33 fold over parental"),
]
